# experimental target: CD117 on wild-type cells (TF-1 cells, HSPCs, HSCs) (human, UniProt P10721 26-976)
# Sequence (P10721 26-976 limits assumed): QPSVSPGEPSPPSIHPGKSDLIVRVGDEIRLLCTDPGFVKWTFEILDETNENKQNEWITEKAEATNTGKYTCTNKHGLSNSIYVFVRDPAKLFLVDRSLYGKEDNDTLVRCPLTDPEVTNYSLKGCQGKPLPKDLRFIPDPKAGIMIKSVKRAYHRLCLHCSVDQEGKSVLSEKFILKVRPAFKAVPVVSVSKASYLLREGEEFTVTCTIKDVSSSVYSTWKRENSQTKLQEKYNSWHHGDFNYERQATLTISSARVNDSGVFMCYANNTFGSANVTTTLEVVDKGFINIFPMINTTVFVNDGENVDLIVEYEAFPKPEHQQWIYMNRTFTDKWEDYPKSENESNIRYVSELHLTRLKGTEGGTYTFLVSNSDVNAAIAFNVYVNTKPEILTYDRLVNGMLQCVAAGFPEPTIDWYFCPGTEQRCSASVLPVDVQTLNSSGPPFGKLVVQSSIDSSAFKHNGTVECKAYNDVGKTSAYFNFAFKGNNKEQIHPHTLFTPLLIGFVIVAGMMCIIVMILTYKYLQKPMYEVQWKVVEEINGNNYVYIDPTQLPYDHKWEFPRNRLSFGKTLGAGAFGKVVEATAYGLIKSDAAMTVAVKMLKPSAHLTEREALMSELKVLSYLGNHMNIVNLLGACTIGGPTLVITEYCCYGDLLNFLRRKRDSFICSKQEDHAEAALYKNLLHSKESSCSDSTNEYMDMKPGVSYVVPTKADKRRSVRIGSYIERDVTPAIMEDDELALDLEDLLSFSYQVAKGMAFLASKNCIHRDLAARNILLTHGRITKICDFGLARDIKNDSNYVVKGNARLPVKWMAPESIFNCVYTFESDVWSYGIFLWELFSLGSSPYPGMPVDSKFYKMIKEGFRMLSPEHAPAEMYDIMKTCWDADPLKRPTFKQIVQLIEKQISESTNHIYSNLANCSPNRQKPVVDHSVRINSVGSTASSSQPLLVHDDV
# measurement protocol: cell-based or functional assay
reported endpoint: IC50, inhibition of SCF-dependent proliferation of TF-1 cells (CellTiter-Glo), Average (µg/mL)
Give your result in µg/mL as a bare value.

Allalinhorn (antibody, V domains shown, IgG; also called VH1/VL1.19; Allaninhorn) VH: QVQLVQSGAEVKKPGASVKVSCKASGYTFTSYNMHWVRQAPGQGLEWMGVIYSGNGDTSYNQKFKGRVTMTTDTSTSTAYMELRSLTSDDTAVYYCARERDTRFGNWGQGTLVTVSA VL: EIVLTQSPSSLSASVGDRVTITCRASESVDIYGESFMHWYQQKPGKAPKLLIYLASNLESGVPSRFSGSGSGTDFTLTISSLQPEDFATYYCQQNKEEPYTFGQGTKLEIKR yielded IC50, inhibition of SCF-dependent proliferation of TF-1 cells (CellTiter-Glo), Average of 0.0441
